Test system: NCI/ADR-RES ovarian
protocol.summary: NCI-60 one-dose screen, 48 h (100 = growth as untreated, 0 = no growth, -100 = all killed)
run.conditions: 10 µM unless noted
Method: Growth inhibition of the NCI/ADR-RES human […] tumor cell line is measured as a screen for anti-cancer activity. Cells are grown in 96 well plates and exposed to the test compound for 48 hours. Compounds are tested at a single concentration, which is 10^-5 M for most compounds. The reported endpoint is percent growth (GI% or GIPRCNT), where numbers from 0 - 100% represent growth inhibition, and numbers from -100% - 0 represent cell death. For example, a value of 40 represents 60% growth inhibition. […]
This is part of a sample that, as a whole, favours compounds with a hit. Of some 83,000 tested, about 20% had one in any assay.
observation.type: growth (%)
Supply the numeric figure in %, leaving out any unit text.

# compound, observation.type, readout.unit, data.value
rows = [
    ("C(=N\\Nc1nc(N/N=C/c2ccc3c(c2)OCO3)nc(N2CCCCC2)n1)/c1ccc2c(c1)OCO2", "growth", "%", 85.5),
    ("COc1cc(C(=O)c2cc(C(C)=O)c3c(C)cccn23)cc(OC)c1OC", "growth", "%", 97.9),
    ("CN(C)CC(=O)Nc1nc(-c2cccc(NS(=O)(=O)c3cccc4c(N(C)C)cccc34)c2)cs1", "growth", "%", 76.8),
    ("CCN(CC)c1ccc(/C=N/NC(=O)c2ccc(S(N)(=O)=O)cc2)c(O)c1", "growth", "%", 18),
    ("CC(=O)Nc1cc(N2CCOCC2)c2nc(NC(=O)c3[nH]c(C)c(Cl)c3Cl)sc2c1", "growth", "%", 48.9),
]

Query: # input compound: `Cc1cc(=O)oc2cc(OCCCOc3ccc(/C=C/C(=O)Nc4ccc(Br)cc4)cc3)ccc12` ; wanted: its growth
Reply: 64.6

Query: So what's the measured growth for this one? `Cc1ccc2c(n1)C(=O)C(Cl)=C(Nc1cccc(C(=O)OC(C)(C)C)c1)C2=O`
Reply: 93.9

Query: Requested field: growth. Item: `CC1=C(C)C(=O)C(Nc2cccc(C(=O)OC(C)(C)C)c2)=C(Cl)C1=O`
Reply: 97.6

Query: Please give the measured growth for this compound: `O=C(/C=C/c1ccccc1)c1cccc(O)c1`
Reply: 107

Query: For `O=C(CSc1nc2ccccc2c(=O)n1-c1ccc(Cl)cc1)N/N=C/c1ccc(Oc2ccc(Cl)cc2)cc1` , what is its reported growth?
Reply: 15.7

Query: Which value of growth has been reported for `CN1CCN(Cc2ccc(/C=N/Nc3ccnc4cc(Cl)ccc34)cc2)CC1` in the records?
Reply: 87

Query: What value of growth has been reported for the following compound? `CC(C)(C)Nc1nc2c(OCCc3ccccc3)cccn2c1-c1ccc([N+](=O)[O-])cc1`
Reply: 51.6

Query: Record request: growth value, item `CS(=O)(=O)c1nccc(-c2c(-c3cccc(OCc4ccc(Cl)c(C(F)(F)F)c4)c3)nc3sccn23)n1`
Reply: 98.2

Query: Which growth is listed for `Fc1ccc(-c2cn3c(-c4c[nH]c5ccc(Br)cc45)csc3n2)cc1` ?
Reply: 48.7

Query: Fill in: growth of `COc1ccc(Cn2cc(C#N)c(N)c2C(C)=O)cc1` is ___
Reply: 104

Query: Item under review: `CCC(=C(c1ccc(OCCN2CCCCCC2)cc1)c1ccc(OCCN2CCCCCC2)cc1)c1ccc(Cl)cc1` . Reported growth?
Reply: 29.4

Query: Field request: growth | item: `CCOC(=O)c1cnc2c(-c3ccc(Cl)c(Cl)c3)cnn2c1`
Reply: 58.5

Query: What value of measured growth is listed for `COC(=O)c1cccc(NC2=C(Cl)C(=O)C(C)=C(C)C2=O)c1` ?
Reply: 98.2
